# Test system: HCT116
# test.method.notes: efficacy (fitted maximal change in viability relative to DMSO control); higher = less cytotoxic (negative = loss of viability)
# setup.conditions: 48 h
Structures can show the parent of a compound that is named as a salt.

molecule	unit	efficacy
Cc1cc(/C=c2/sc3nc4ccccc4n3c2=O)c(C)n1-c1ccccc1	%	-19.9
Cc1cnc(Nc2ccc(CN3CCOCC3)cc2)nc1Nc1cccc([S+](=O)([O-])NC(C)(C)C)c1	%	-97.9
C[S+](=O)([O-])N(Cc1ccco1)CC(O)Cn1c2ccccc2c2ccccc21 (centres undefined)	%	-21.8
CN[C@@H]1Cc2cccc3[nH]c(=O)n(c23)C1 [Sumanirole maleate]	%	-12.4
Cn1c(=O)n(-c2ccc(C(C)(C)C#N)cc2)c2c3cc(-c4cnc5ccccc5c4)ccc3ncc21	%	-60.5
CCNc1cc(NC2CCC(O)CC2)nc(Nc2ccc3c(ccn3Cc3ccccc3)c2)n1 (centres undefined)	%	-51.1
CO[C@H]1/C=C/O[C@@]2(C)Oc3c(C)c(O)c4c(O)c(c5c(nc6cc(C)ccn65)c4c3C2=O)NC(=O)/C(C)=C\C=C\[C@H](C)[C@H](O)[C@@H](C)[C@@H](O)[C@@H](C)[C@H](OC(C)=O)[C@@H]1C	%	-88.6
COCCOc1ccc2c(c1)ncn2-c1ccc2cccc(N3CCC(N)CC3)c2n1	%	-85.5
COc1ccc(Nc2cc(-c3cnc(N)nc3)nc(N3CCOCC3)n2)cn1	%	-65.5
O=C1NC(=O)/C(=C/c2ccc(-c3ccc(F)cc3O)o2)S1	%	-29.8
O=S(=O)([O-])CCS	%	-8.13
CC(C)C[C@H](NC(=O)c1cc2ccccc2s1)C(=O)N1CCN(C(=O)[C@H](CO)N[S+](=O)([O-])c2ccc(Cl)cc2Cl)CC1	%	-76.8
COC(=O)C1C2CC3c4[nH]c5cc(OC)ccc5c4CCN3CC2CC(OC(=O)c2cc(OC)c(OC)c(OC)c2)C1OC (centres undefined)	%	-68.3
NC1=C(Cl)C(=CC=N1)OC2=C(F)C=C(NC(=O)\C3=C\N\C=C(C3=O)\C4=CC=C(F)C=C4)C=C2	%	-78.4
Cc1c(CN2CCN([S+](C)(=O)[O-])CC2)sc2c(N3CCOCC3)nc(-c3cnc(N)nc3)nc12	%	-57.8
C=CC(=O)Nc1cccc(Nc2nc(Nc3ccc(Oc4ccnc(C(=O)NC)c4)cc3)ncc2F)c1	%	-111
Cc1c(OCC(F)(F)F)ccnc1C[S+]([O-])c1nc2ccccc2[nH]1 (centres undefined)	%	-18.3
C=C(C)[C@@H]1CC[C@]2(C)CC[C@]3(C)[C@H](CC[C@@H]4[C@@]5(C)CC[C@H](O)C(C)(C)[C@@H]5CC[C@]43C)[C@@H]12	%	-15.6
Nc1ncnc2c1C(=O)N(c1ccc([C@H]3CC[C@H](CC(=O)O)CC3)cc1)CCO2	%	-5.95

====

# Test system: HCT116;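 further: Luminescence-based viability readout, five doses per compound, normalized against on-plate DMSO and empty-well controls, followed by dose-response curve fitting for every drug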
# test.method.notes: efficacy (fitted maximal change in viability relative to DMSO control); higher = less cytotoxic (negative = loss of viability)
# setup.conditions: 48 h
Structures can show the parent of a compound that is named as a salt.
Use -60% as the dividing line for efficacy, with the line itself on the YES side and lower values as NO.

compound	label
CCc1ccc(CCOc2ccc(CC3SC(=O)NC3=O)cc2)nc1 (stereo unspecified) [Pioglitazone hydrochloride]	YES
CN(C)CC/C=C1/c2ccccc2COc2ccc(CC(=O)O)cc21 [Olopatadine hydrochloride]	YES
O=C(Nc1cc(Cl)cc2c1[nH]c1cnccc12)c1cccnc1	YES
CCC[C@H](NC(=O)[C@@H]1[C@H]2CCC[C@H]2CN1C(=O)[C@@H](NC(=O)[C@@H](NC(=O)c1cnccn1)C1CCCCC1)C(C)(C)C)C(=O)C(=O)NC1CC1	YES
CCN(CC)CCNC(=O)c1ccc2nc(-c3ccccc3)c(-c3ccc(CN4CCC(n5c(=O)[nH]c6ccccc65)CC4)cc3)nc2c1	NO
CN1CCN(C)C(=O)C1C2=CC=C(N/C3=N/C(=C\N(C)C3=O)C4=C(C)C(=CC=C4)NC(=O)C5=CC6=C(CCCC6)S5)C=C2 (racemic) [GDC-0834 racemate]	YES
COC1=C(OC)C=C2C(=C1)C(=O)N(CCCN3CCOCC3)\C4=C2\C(=O)C5=C4C=C6OCOC6=C5 [Indotecan hydrochloride (LMP-400)]	NO
O[C@H]1CC[C@@H](Oc2cccc3cnc(Nc4ccc5nc[nH]c5c4)nc23)CC1	NO
C/C1=C2/[N]3[Co+]456([OH])<-[N]7=C1[C@@H](CCC(N)=O)C(C)(C)/C7=C/C1=[N]->4C(=C(/C)C4=[N]->5[C@@](C)([C@H]3[C@H](CC(N)=O)[C@@]2(C)CCC(=O)NC[C@@H](C)OP(=O)([O-])O[C@H]2[C@@H](O)[C@@H](n3c[n]->6c5cc(C)c(C)cc53)O[C@@H]2CO)[C@@](C)(CC(N)=O)[C@@H]4CCC(N)=O)/[C@@](C)(CC(N)=O)[C@@H]1CCC(N)=O [Hydroxocobalamin]	YES
Cc1cccc(-c2nn(C(=S)Nc3ccccc3)cc2-c2ccnc3ccccc23)n1	YES
Cc1cc2cc(Oc3ccnc(Nc4cccc(C[S+](=O)([O-])NCCN(C)C)c4)n3)ccc2[nH]1	NO
FC1=CC2=C3[N](CCN(CC3=C1)C(=O)N4CCCCC4)C=C2C/5=C(C(=O)NC5=O)\C6=CN=C7C=CC=C[N]67	NO
COc1cccc2c1C(=O)c1c(O)c3c(c(O)c1C2=O)C[C@@](O)(C(C)=O)C[C@@H]3O[C@H]1C[C@H](N)[C@H](O)[C@H](C)O1	NO
Clc1ccc(C2(c3ccc(-c4cn[nH]c4)cc3)CCNCC2)cc1	NO
CSCC[C@H](NC(=O)[C@H](Cc1c[nH]c2ccccc12)NC(=O)CCNC(=O)OC(C)(C)C)C(=O)N[C@@H](CC(=O)O)C(=O)N[C@@H](Cc1ccccc1)C(N)=O	YES
